Tested on: Micrococcus flavus
Assay: Antibacterial activity against Micrococcus flavus ATCC 10240 after 24 hrs by microbroth double dilution method
Type: functional
Settings: ATCC 10240, 24 h
Reported MIC values are given for each entry in this list.
Give your result in µM as a bare value.

[[record]]
structuresmilesstring = "CC(C)(C)C1=CC(=O)C=C(NCCC(=O)O)C1=O"
systemundertest = "Micrococcus flavus"
attributemeasured = "MIC"
unitname = "µM"
datavalue = 2490

[[record]]
structuresmilesstring = "CC1=CCC[C@H]2[C@](C)(CC3=CC(=O)C=C(N[C@@H](Cc4c[nH]c5ccccc45)C(=O)O)C3=O)[C@@H](C)CC[C@]12C"
systemundertest = "Micrococcus flavus"
attributemeasured = "MIC"
unitname = "µM"
datavalue = 37.9

[[record]]
structuresmilesstring = "CC1=CCC[C@H]2[C@](C)(CC3=CC(=O)C=C(N[C@@H](CC(C)C)C(=O)O)C3=O)[C@@H](C)CC[C@]12C"
systemundertest = "Micrococcus flavus"
attributemeasured = "MIC"
unitname = "µM"
datavalue = 88.3


Then there is this compound:
Lookup result for CC1=CCC[C@H]2[C@](C)(CC3=CC(=O)C=C(NCCC(=O)O)C3=O)[C@@H](C)CC[C@]12C ; measured MIC: 783
